Form field: log10 of fB Cleavage EC50 (one value per entry).
# System Under Test: Human Factor B (human) (UniProt P00751)
# Sequence (P00751 26-764 limits assumed): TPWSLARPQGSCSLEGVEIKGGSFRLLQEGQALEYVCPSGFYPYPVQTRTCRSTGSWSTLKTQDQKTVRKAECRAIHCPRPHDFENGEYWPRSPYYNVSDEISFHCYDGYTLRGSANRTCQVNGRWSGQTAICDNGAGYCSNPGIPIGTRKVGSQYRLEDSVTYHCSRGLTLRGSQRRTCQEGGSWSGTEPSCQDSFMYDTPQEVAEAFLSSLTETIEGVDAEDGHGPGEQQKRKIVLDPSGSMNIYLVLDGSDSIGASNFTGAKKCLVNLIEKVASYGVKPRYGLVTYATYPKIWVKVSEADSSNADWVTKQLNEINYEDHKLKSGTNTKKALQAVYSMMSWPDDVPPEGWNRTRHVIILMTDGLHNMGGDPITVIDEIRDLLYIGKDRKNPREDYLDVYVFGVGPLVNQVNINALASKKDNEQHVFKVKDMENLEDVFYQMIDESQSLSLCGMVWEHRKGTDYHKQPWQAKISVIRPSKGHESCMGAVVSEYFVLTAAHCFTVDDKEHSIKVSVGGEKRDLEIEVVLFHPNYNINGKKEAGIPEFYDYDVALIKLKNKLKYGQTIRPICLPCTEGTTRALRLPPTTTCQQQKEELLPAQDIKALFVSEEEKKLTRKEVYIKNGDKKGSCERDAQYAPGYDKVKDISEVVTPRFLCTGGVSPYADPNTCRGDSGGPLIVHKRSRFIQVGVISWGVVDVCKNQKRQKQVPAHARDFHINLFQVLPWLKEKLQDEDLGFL
# Experimental Details: cell-based or functional assay
Reported Endpoint: log10 of fB Cleavage EC50 (log10 of the value in µM)

| Binder | Experimental Value |
| --- | --- |
| chymase C22S/F41V/L99H/G151T/F173L/Y215K/A226R (enzyme) IIGGTESKPHSRPYMAYLEIVTSNGPSKVCGGFLIRRNFVLTAAHCAGRSITVTLGAHNITEEEDTWQKLEVIKQFRHPKYNTSTHHHDIMLLKLKEKASLTLAVGTLPFPSQFNFVPPGRMCRVAGWGRTGVLKPTSDTLQEVKLRLMDPQACSHLRDFDHNLQLCVGNPRKTKSAFKGDSGGPLLCAGVAQGIVSKGRSDAKPPRVFTRISHYRPWINQILQAN | 0.73 |
| chymase C22S/F173Y/A226R (enzyme) IIGGTESKPHSRPYMAYLEIVTSNGPSKFCGGFLIRRNFVLTAAHCAGRSITVTLGAHNITEEEDTWQKLEVIKQFRHPKYNTSTLHHDIMLLKLKEKASLTLAVGTLPFPSQFNFVPPGRMCRVAGWGRTGVLKPGSDTLQEVKLRLMDPQACSHYRDFDHNLQLCVGNPRKTKSAFKGDSGGPLLCAGVAQGIVSYGRSDAKPPRVFTRISHYRPWINQILQAN | -0.19 |
| chymase C22S/F41L/L99H/F173Y/Y215K/A226R (enzyme) IIGGTESKPHSRPYMAYLEIVTSNGPSKLCGGFLIRRNFVLTAAHCAGRSITVTLGAHNITEEEDTWQKLEVIKQFRHPKYNTSTHHHDIMLLKLKEKASLTLAVGTLPFPSQFNFVPPGRMCRVAGWGRTGVLKPGSDTLQEVKLRLMDPQACSHYRDFDHNLQLCVGNPRKTKSAFKGDSGGPLLCAGVAQGIVSKGRSDAKPPRVFTRISHYRPWINQILQAN | 0.54 |
| chymase C22S/P38Q/K40V/F41R/V138I/F173L/D175R/A190S/V213A/S218I/A226R (enzyme) IIGGTESKPHSRPYMAYLEIVTSNGQSVRCGGFLIRRNFVLTAAHCAGRSITVTLGAHNITEEEDTWQKLEVIKQFRHPKYNTSTLHHDIMLLKLKEKASLTLAVGTLPFPSQFNFVPPGRMCRIAGWGRTGVLKPGSDTLQEVKLRLMDPQACSHLRRFDHNLQLCVGNPRKTKSSFKGDSGGPLLCAGVAQGIASYGRIDAKPPRVFTRISHYRPWINQILQAN | -0.77 |
| chymase C22S/P38Q/K40A/F41R/L99H/V138I/D175R/A190S/V213A/S218L/A226R (enzyme) IIGGTESKPHSRPYMAYLEIVTSNGQSARCGGFLIRRNFVLTAAHCAGRSITVTLGAHNITEEEDTWQKLEVIKQFRHPKYNTSTHHHDIMLLKLKEKASLTLAVGTLPFPSQFNFVPPGRMCRIAGWGRTGVLKPGSDTLQEVKLRLMDPQACSHFRRFDHNLQLCVGNPRKTKSSFKGDSGGPLLCAGVAQGIASYGRLDAKPPRVFTRISHYRPWINQILQAN | -0.72 |
